tested on: HCC1937 cells lacking BRCA1; assay: MTT growth inhibition assay, HCC1937 cells lacking BRCA1; type: cell-based; settings: HCC1937 cells lacking BRCA1, with R9-PCNA peptide 60 μM; read-out: IC50 value for R9-PCNA peptide (60 μM)+cisplatin
outcome measure: IC50

Consider the compound shown here: N.N.[Cl][Pt][Cl] [cisplatin, reference compound] What is its recorded IC50?
~20 µM
